System: TLR2 TMD (functional ToxR chimera)
Test: Dominant-negative (heterotypic) ToxR assay, TLR2 as dominant phenotype
Assay type: cell-based
Conditions: Miller units normalized to poly-Leu* = 1 and corrected for expression, lower = stronger interaction, N in table
No end group written: not given here.
quantity_kind: Mean TLR2-TMD* heterotypic interaction (ToxR signal)
Lab note: write the figure by itself, no unit.

Query: Could you share which Mean TLR2-TMD* heterotypic interaction (ToxR signal) value was measured for TLR1*: TLR1 TMD chimera with nonfunctional ToxR* domain (negative phenotype) (GNRASITLLIVTIVATMLVLAVTVTSLCSYLGSLIN; also: fused to non-functional ToxR* (S87H) and maltose binding protein, ends not given here) ?
Reply: 0.2198

Query: Continue with TLR6*: TLR6 TMD chimera with nonfunctional ToxR* domain (negative phenotype) (GNRASITLLIVTIGATMLVLAVTVTSLCIYLGSLIN; also: fused to non-functional ToxR* (S87H) and maltose binding protein, ends not given here)
Reply: 0.2588

Query: Do the same for TLR10*: TLR10 TMD chimera with nonfunctional ToxR* domain (negative phenotype) (GNRASALLIVTIVVIMLVLGLAVAFCCLGSLIN; cysteine pairing not given here; also: fused to non-functional ToxR* (S87H) and maltose binding protein, ends not given here) please
Reply: 0.3877

Query: Note, next up: TLR5*: TLR5 TMD chimera with nonfunctional ToxR* domain (negative phenotype) (GNRASFSLFIVCTVTLTLFLMTILTVTGSLIN; also: fused to non-functional ToxR* (S87H) and maltose binding protein, ends not given here)
Reply: 0.9233

Query: Note, next up: TLR2*: TLR2 TMD chimera with nonfunctional ToxR* domain (negative phenotype) (GNRASALVSGMCCALFLLILLTGVLCGSLIN; cysteine pairing not given here; also: fused to non-functional ToxR* (S87H) and maltose binding protein, ends not given here)
Reply: 0.1930

---

Test system: TLR6 TMD (functional ToxR chimera)
Assay: Dominant-negative (heterotypic) ToxR assay, TLR6 as dominant phenotype
Assay type: cell-based, E. coli
Settings: Miller units normalized to poly-Leu* = 1 and corrected for expression, lower = stronger interaction, N in table
No end group written: not given here.
Kindly state Mean TLR6-TMD* heterotypic interaction (ToxR signal) for each of the entries shown.
The reply should be a number, written without any unit.

Query: GET /values?readout=Mean TLR6-TMD* heterotypic interaction (ToxR signal)&item= GNRASWVLV G VLG G LLLLTILVLAMWGSLIN [Integrin*, Integrin αIIb TMD fused to nonfunctional ToxR* domain, unrelated receptor, reference compound]
Reply: 0.6106

Query: Same question, TLR10*: TLR10 TMD chimera with nonfunctional ToxR* domain (negative phenotype) (GNRASALLIVTIVVIMLVLGLAVAFCCLGSLIN; cysteine pairing not given here; also: fused to non-functional ToxR* (S87H) and maltose binding protein, ends not given here) this time
Reply: 0.3445

Query: Okay, and TLR2*: TLR2 TMD chimera with nonfunctional ToxR* domain (negative phenotype) (GNRASALVSGMCCALFLLILLTGVLCGSLIN; cysteine pairing not given here; also: fused to non-functional ToxR* (S87H) and maltose binding protein, ends not given here) ?
Reply: 0.2802

Query: Now give it for TLR6*: TLR6 TMD chimera with nonfunctional ToxR* domain (negative phenotype) (GNRASITLLIVTIGATMLVLAVTVTSLCIYLGSLIN; also: fused to non-functional ToxR* (S87H) and maltose binding protein, ends not given here) too.
Reply: 0.2564

From: paper PMC3498381
